Just for reference, patent US6355799B1 is where these values come from.

Post-emerge phytotoxicity rating CORN (crop damage): recorded values
System: field corn (Zea mays L., var. Dekalb 535, CORN)
ASSAY_SUMMARY: Post-emerge test, crop safety
Format: in vivo
DETAILS: Rate 250 g ai/ha; rating scale 0-100 (0 no damage, 100 complete death); 14 days after application
REPORTED_METRIC: Post-emerge phytotoxicity rating CORN (crop damage)

[[record]]
molecule = "CCOC(=O)CCc1c(OC)c(Cl)cc(F)c1-n1c(=O)cc(C(F)(F)F)n(C)c1=O"
target_under_test = "field corn (Zea mays L., var. Dekalb 535, CORN)"
val = 100

[[record]]
molecule = "COc1c(Cl)cc(F)c(-n2c(=O)cc(C(F)(F)F)n(C)c2=O)c1CC(C)(Cl)C(=O)OCCSC (stereo not shown)"
target_under_test = "field corn (Zea mays L., var. Dekalb 535, CORN)"
val = 100

[[record]]
molecule = "CCOC(=O)C(Cl)(C#N)Cc1c(OC)c(Cl)cc(F)c1-n1c(=O)cc(C(F)(F)F)n(C)c1=O (stereo not shown)"
target_under_test = "field corn (Zea mays L., var. Dekalb 535, CORN)"
val = 0

[[record]]
molecule = "CCOCCOC(=O)C(Cl)Cc1c(OC)c(Cl)cc(F)c1-n1c(=O)cc(C(F)(F)F)n(C)c1=O (stereo not shown)"
target_under_test = "field corn (Zea mays L., var. Dekalb 535, CORN)"
val = 100

